Tested on: NCI-H187
Assay: Cytotoxicity against human NCI-H187 by resazurin microplate assay
Type: functional, cell-based
value.kind: pIC50
Hey, just a heads up that pIC50 is the negative log base 10 of the concentration in molar.

Requested read-out pIC50, target or system NCI-H187, entry C=C[C@@]1(C)CCc2c3c(c(O)c(O[C@H]4O[C@H](CO)[C@@H](O)[C@H](O)[C@H]4O)c2[C@H]1O)C(C)(C)CCC3 4.19

---

Tested on: Vero
Assay: Cytotoxicity against african green monkey Vero cells by green fluorescent protein microplate assay
Assay type: cell-based
Conditions: Chlorocebus sabaeus
value.kind: pIC50
Kindly note that pIC50 refers to -log10 of the concentration in mol/L and answer with the value alone.

Item C=C[C@@]1(C)CCc2c3c(c(O)c(O[C@H]4O[C@H](CO)[C@@H](O)[C@H](O)[C@H]4O)c2[C@H]1O)C(C)(C)CCC3 has what recorded pIC50? 4.39
